- Protocol: inhibitors of fungal efflux pumps CDR1, CDR2, MDR1, pilot screen, validation compound set, multiplex, phenotypic (AID 588506);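 note: Nile Red retained in cells so higher fluorescence means more efflux inhibition; 0 = negative control wells and 1 = enniatin B 25 µM full block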
- Condition: S. cerevisiae pump-expressing triplex, Nile Red efflux flow cytometry; at 10 µM; stronger effect = higher value; the pumps come from Candida albicans
Heads up, the class ranges for efflux inhibition (fraction of control) are zone 1: < -0.2; zone 2: ≥ -0.2 and < 0.03; zone 3: ≥ 0.03

INSERT INTO measurements (compound, label_value) VALUES
  ('Cn1cc(CN2CCCC(CO)(Cc3cccc(Cl)c3)C2)cn1 (stereo not drawn)', 'zone 1'),
  ('CCN(CC)C1=C(Cl)C(=O)C(Cl)C12OCCO2 (stereo not drawn)', 'zone 3'),
  ('CNCCCN1c2ccccc2CCc2ccccc21', 'zone 1'),
  ('COC(=O)c1cc(C(=O)NCCC(C)C)cc([N+](=O)[O-])c1', 'zone 2'),
  ('Nc1cccc2c1nnn2C1OC(CO)C(O)C(O)C1O (stereo not drawn)', 'zone 2'),
  ('COC(=O)c1ccc(COc2ccc3c(C)c(C)c(=O)oc3c2C)o1', 'zone 3'),
  ('O=C1CCCCCN1Cc1ccccc1', 'zone 1'),
  ('CC(C)(C)NC[C@H](O)COc1nsnc1N1CCOCC1', 'zone 3'),
  ('CCOC(=O)c1cnc2ccccc2c1NCCO', 'zone 2'),
  ('C[N+]12CCCCC1C(COC(=O)c1ccc3c(c1)OCO3)CCC2 (stereo not drawn)', 'zone 3'),
  ('C[C@]12C=CC(=O)C=C1CCC1C3CC[C@](O)(C(=O)CO)[C@@]3(C)CC3OC312 (stereo partly drawn)', 'zone 3'),
  ('CCOC(=O)C1(CCCc2ccccc2)CCN(C2CCN(C(C)=O)CC2)CC1', 'zone 3'),
  ('CN1CCc2cccc3c2[C@H]1Cc1ccc(O)c(O)c1-3', 'zone 3'),
  ('CC1(C)CC(=O)C(C(=O)CCCCC(=O)C2C(=O)CC(C)(C)CC2=O)C(=O)C1', 'zone 1'),
  ('CC(C)C[C@H](NC(=O)[C@@H]1Cc2ccccc2CN1C(=O)OC(C)(C)C)C(=O)NCC1CCC(C(=O)O)CC1 (stereo partly drawn)', 'zone 2'),
  ('COc1ccc(-c2c(NC(=O)c3ccco3)n(C)c3ccccc3c2=O)cc1', 'zone 1'),
  ('O=c1ccc2ccccc2o1', 'zone 2'),
  ('COc1c(C)cc(C(=O)C2CCCN(Cc3ccc(Oc4ncccn4)cc3)C2)cc1C (stereo not drawn)', 'zone 2'),
  ('O=C1CCCN1CCCn1cnc2c([nH]c3ccc(F)cc32)c1=O', 'zone 1'),
  ('CCCNC(=O)NS(=O)(=O)c1ccc(Cl)cc1', 'zone 2'),
  ('C[N+](C)(C)CCOP(=O)(O)OP(=O)([O-])OC[C@H]1O[C@@H](n2ccc(N)nc2=O)[C@H](O)[C@@H]1O', 'zone 2'),
  ('COc1ccc(CCNC(=O)C(=O)Nc2ccc3c(c2)OCO3)cc1OC', 'zone 2');

Reference source for all entries: PubChem BioAssay
